B1: NELF-E aptamer (parent)
chain: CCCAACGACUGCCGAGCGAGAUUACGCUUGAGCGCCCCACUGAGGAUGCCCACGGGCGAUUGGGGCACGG

# Variants of: B1
# Assay summary: HiTS-RAP
# Condition notes: with NELF-E (Drosophila)
Metric: pKd
Just so you know, pKd here is -log10 of the concentration in molar units; reply with that number alone.

Some solved entries appear below for comparison.
{"columns": ["Mutation key", "Metric", "Measured number"],
 "data": [
  ["G14A A21G", "pKd", 8.22],
  ["C6G G42U", "pKd", 7.86],
  ["A31G", "pKd", 8.16],
  ["G16C", "pKd", 8.32],
  ["G7A U10G", "pKd", 8.25]
]}

Give reported pKd value for U10G G26U
8.30

Give reported pKd value for C53U G64A
8.32

Give reported pKd value for C6G G65U
8.20
